- Test system: c-Src
- EXPERIMENT_SUMMARY: phosphorylation enrichment, bacterial display (enrichment ratio); higher = better substrate or ligand; peptides without Tyr show the background
METRIC_NAME: phosphorylation enrichment

>>> df
                     residue_sequence                 metric_name  numeric_value
 0    KGERGYPGTLG [COL4A1_Y348_P352L]  phosphorylation enrichment          0.337
 1     NREGVYTDFAP [TGFBI_Y537_V539D]  phosphorylation enrichment           7.49
 2     TTGGFYSYGGG [KRT24_Y120_A115T]  phosphorylation enrichment           1.25
 3          NGRTGYVLQPE [PLCG2_Y1036]  phosphorylation enrichment          0.416
 4   MSSLPYMKVIF [SLC4A11_Y853_M856V]  phosphorylation enrichment          0.516
 5      TRDVNYGWVIR [MT-CYB_Y75_I78V]  phosphorylation enrichment          0.576
 6     LVRPPYSYLAL [FOXI1_Y126_S129L]  phosphorylation enrichment          0.498
 7   IRYPPYTDWNQ [ALDH3B2_Y365_H361R]  phosphorylation enrichment          0.418
 8     TTSQPYRRLCS [USH2A_Y534_C536R]  phosphorylation enrichment          0.356
 9         LEAVSYSSRFA [RNLS_Y190_YF]  phosphorylation enrichment          0.435
10           GESVSYLFSHV [PRPS1_Y311]  phosphorylation enrichment          0.431
11        GPQSLYNGLVA [UCP2_Y79_R76Q]  phosphorylation enrichment           1.83
12           LEIETYRRLLD [KRT12_Y429]  phosphorylation enrichment          0.369
13             ILGRYYETGSI [PAX2_Y73]  phosphorylation enrichment          0.455
14         CPYNLYAAQLS [HGD_Y40_E42A]  phosphorylation enrichment           6.42
15     TRGLEYIVPLM [CLCN4_Y548_G544R]  phosphorylation enrichment          0.541
16       DENWFYTQAAS [RPS19_Y54_R56Q]  phosphorylation enrichment          0.472
17  TSFQMYDKGLV [IARS2_Y231_F227S_YF]  phosphorylation enrichment          0.475
18     GSCQEYTGAPF [NAXD_Y85_G81S_YF]  phosphorylation enrichment          0.564
19      QFQLKYSETPF [SIX6OS1_Y129_YF]  phosphorylation enrichment          0.812
20     RLLRGYDQYAY [HLA-B_Y137_H137Y]  phosphorylation enrichment          0.738
21           LINLKYSVEEE [PCDH19_Y27]  phosphorylation enrichment           1.19
22           KHGGNYVPAPK [OSCP1_Y237]  phosphorylation enrichment          0.491
23            QRRYVYYYSYL [PTEN_Y176]  phosphorylation enrichment           4.21
24     DRLASYLDKVP [KRT14_Y129_R134P]  phosphorylation enrichment          0.493
25      YPKARYRWLVL [APTX_Y214_H215R]  phosphorylation enrichment          0.399
26       QGQHWYSSSDT [CASP10_Y9_K14T]  phosphorylation enrichment          0.982
27   TDKLFYIYTPG [SLC27A4_Y243_S247P]  phosphorylation enrichment          0.592
28          QSSALYEDRFL [ASS1_Y83_YF]  phosphorylation enrichment           2.02
29            ICANKYMVKSC [RPL10_Y75]  phosphorylation enrichment           0.44
30     SASSSYSRSRS [SRRM4_Y549_R547S]  phosphorylation enrichment          0.432
31            GQRDLYSGLNQ [CD3E_Y199]  phosphorylation enrichment           6.88
32   RCFVFYFSFLL [PTEN_Y177_R173C_YF]  phosphorylation enrichment          0.591
33     WRPFGYPRCRR [BCS1L_Y181_R184C]  phosphorylation enrichment          0.528
34      KASRKYYAMKI [AKT3_Y173_G171R]  phosphorylation enrichment          0.257
35  HNLDFYKQTTN [FGFR3_Y648_K650Q_YF]  phosphorylation enrichment          0.409
36     LRGVIYVILRK [PMP22_Y153_S149R]  phosphorylation enrichment          0.713
37     TNFCLYLRSLE [MTM1_Y71_R69C_YF]  phosphorylation enrichment          0.612
38           PIAPVYAASMV [ACAT1_Y331]  phosphorylation enrichment           10.5
39   AEPNIYQEKLS [USP54_Y1233_D1231N]  phosphorylation enrichment          0.679
40    FLQTDDTSQVS [FRMPD1_Y846_Y846D]  phosphorylation enrichment          0.476
41    HIILLYIFLKN [STXBP1_Y411_R406H]  phosphorylation enrichment          0.568
42          VECHPYFTQPK [AKR1D1_Y199]  phosphorylation enrichment          0.779
43          TKFRNYLIPKG [CYP2C8_Y379]  phosphorylation enrichment          0.443
44  QGCGIYKDFFR [PLA2G2D_Y82_S80G_YF]  phosphorylation enrichment           6.23

---

- SUBJECT_OF_TEST: Hck (UniProt P08631)
- Sequence (P08631 whole entry, looked up): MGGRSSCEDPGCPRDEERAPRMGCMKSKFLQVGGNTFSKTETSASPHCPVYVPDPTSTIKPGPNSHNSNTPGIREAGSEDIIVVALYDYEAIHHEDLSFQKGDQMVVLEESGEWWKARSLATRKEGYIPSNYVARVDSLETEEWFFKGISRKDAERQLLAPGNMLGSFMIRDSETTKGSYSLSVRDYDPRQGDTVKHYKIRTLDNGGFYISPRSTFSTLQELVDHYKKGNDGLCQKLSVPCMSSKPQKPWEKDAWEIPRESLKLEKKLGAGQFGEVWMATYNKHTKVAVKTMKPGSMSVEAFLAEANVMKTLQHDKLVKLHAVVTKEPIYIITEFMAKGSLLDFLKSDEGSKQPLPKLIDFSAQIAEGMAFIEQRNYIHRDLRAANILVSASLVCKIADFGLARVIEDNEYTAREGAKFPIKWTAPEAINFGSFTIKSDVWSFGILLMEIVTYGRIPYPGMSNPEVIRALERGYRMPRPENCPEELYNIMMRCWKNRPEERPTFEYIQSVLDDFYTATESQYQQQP
- EXPERIMENT_SUMMARY: phosphorylation enrichment, bacterial display (enrichment ratio); higher = better substrate or ligand; peptides without Tyr show the background
METRIC_NAME: phosphorylation enrichment

>>> df
                        residue_sequence  numeric_value
 0            MKTISYETLIA [DOCK10_Y1350]          0.501
 1     SIKDKYVTAVF [KCNH2_Y611_L615V_YF]          0.467
 2              VNNAVYGIDAM [EIF3J_Y143]          0.829
 3        ELTSVYGSRAR [SENP1_Y349_D350G]           1.86
 4  GAVDTYCRHNF [HLA-DRB1_Y107_A102G_YF]          0.509
 5              ATLDVYNPFET [SCAMP3_Y41]           2.15
 6          HNGVSYFINLC [IGF2R_Y2024_YF]          0.618
 7         YLRTGYSIPYG [TGM1_Y370_V372I]           0.39
 8          AKKVFYMIETR [SHH_Y253_V254M]          0.444
 9         TRDVNYGWVIR [MT-CYB_Y75_I78V]          0.806
10       TIQDAYMHITS [ADCY10_Y318_A313T]          0.496
11               TYEYKYPEGSS [TGM4_Y440]          0.449
12        QMVDMYASSYM [AVPR2_Y124_G122D]           1.58
13         VERRVYAEDPY [PCCA_Y401_C398R]          0.566
14              RRERDYTNLPS [CSF1R_Y923]           0.62

---

- SUBJECT_OF_TEST: Grb2 SH2 (UniProt P62993)
- Sequence (P62993 whole entry, looked up): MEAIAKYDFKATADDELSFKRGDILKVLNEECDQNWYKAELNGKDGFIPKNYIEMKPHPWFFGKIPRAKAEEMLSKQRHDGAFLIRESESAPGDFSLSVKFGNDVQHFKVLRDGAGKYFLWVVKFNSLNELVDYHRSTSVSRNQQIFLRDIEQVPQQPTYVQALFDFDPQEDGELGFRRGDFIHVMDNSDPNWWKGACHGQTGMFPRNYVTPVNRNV
- EXPERIMENT_SUMMARY: SH2 binding enrichment of the phosphorylated peptide, bacterial display (enrichment ratio); higher = better substrate or ligand; peptides without Tyr show the background
METRIC_NAME: SH2 binding enrichment

>>> print(df.to_string())
                      residue_sequence             metric_name  numeric_value
 0     AEKPKYQISNI [TJP1_Y1602_N1605S]  SH2 binding enrichment          0.739
 1      GPIFRYDSGGA [CYP11B1_Y81_L83S]  SH2 binding enrichment          0.969
 2          CPYNLYAAQLS [HGD_Y40_E42A]  SH2 binding enrichment          0.895
 3       TRDVNYGWVIR [MT-CYB_Y75_I78V]  SH2 binding enrichment           1.13
 4        TKYVAYIESQG [KDM4B_Y34_N29T]  SH2 binding enrichment            0.8
 5       WQQQSYLDSGS [CTNNB1_Y30_I35S]  SH2 binding enrichment          0.733
 6      QMVDMYASSYM [AVPR2_Y124_G122D]  SH2 binding enrichment          0.742
 7             ETKKQYDSFTY [TMED3_Y85]  SH2 binding enrichment          0.772
 8             MSIWPYLQKID [MFSD8_Y63]  SH2 binding enrichment          0.838
 9         TNYRFYLRSLE [MTM1_Y71_L70F]  SH2 binding enrichment          0.895
10       SLNAVYPRAGR [OAS3_Y376_S381R]  SH2 binding enrichment          0.851
11     PLQHVYKIGGI [EEF1A2_Y254_D252H]  SH2 binding enrichment          0.941
12             HYECKYVINAI [MAOA_Y268]  SH2 binding enrichment          0.735
13      RQQQDYWLKDV [ANPEP_Y600_I603K]  SH2 binding enrichment           1.01
14            ATGGFYSYGGG [KRT24_Y120]  SH2 binding enrichment           0.82
15             ADCRYYAFPQM [GAMT_Y223]  SH2 binding enrichment          0.862
16      TIQIMFGCDVG [HLA-A_Y123_Y123F]  SH2 binding enrichment          0.861
17  ATHSRYRLNDF [CLDN14_Y233_G232R_YF]  SH2 binding enrichment          0.935
18          YRQNVYIPGSN [PCDHGA1_Y895]  SH2 binding enrichment          0.829
